- Method notes: Inhibition of porcine brain tubulin polymerization measured for 15 mins by spectrophotometric method
- Design: species or system Sus scrofa
pIC50: −log10 of the molar value.
Parameter: pIC50

* COc1ccc([C@H]2[C@H](NC(C)=O)C(=O)N2c2cc(OC)c(OC)c(OC)c2)cc1O (relative stereo) | 5.30

Data credit: ChEMBL document CHEMBL4257525
